GCLC up regulation relative fold change values for the molecules below.
system: GCLC; experiment: Human oxidative stress RT2 Profiler PCR array in HGEPp cells: GCLC; type: cell-based; conditions: HGEPp cells pretreated 24 h at 100 μg/ml; ΔΔCt
Answer in fold, number only, no unit symbol.

Here is how some molecules turned out for GCLC up regulation relative fold change.
* CCCC[n+]1ccncc1-c1ssc(=S)c1C.[Cl-] [Example 4, n-butyl chloride complex of oltipraz] | 3.35
* CC(=O)[n+]1ccncc1-c1ssc(=S)c1C.[Cl-] [Example 3, acetyl chloride complex of oltipraz] | 3.27
* Cc1c(-c2cncc[n+]2C(=O)c2ccccc2)ssc1=S.[Cl-] [Example 6, benzoyl chloride complex of oltipraz] | 3.31
* COP(=O)([O-])OC.Cc1c(-c2c[n+](C)ccn2)ssc1=S | 4.60

Now for another entry.
So what GCLC up regulation relative fold change did Cc1c(-c2cncc[n+]2C)ssc1=S.[I-] [Example 5, methyl iodide complex of oltipraz] get with GCLC?
3.38
